target: dAsCas12a S542R (Acidaminococcus sp., UniProt U2UMQ6 1-1307, S542R;D908A;E993A;D1235A); assay: Spec-seq (native PAGE EMSA with sequencing of bound and unbound); 25 mM Tris-HCl pH 7.4, 150 mM KCl, 5 mM MgCl2, 10% glycerol, 1 mM DTT, 40 ng/uL salmon sperm DNA; 400 nM Cas12a, 480 nM crRNA, 50 nM library, 37 C 1 h; native PAGE at room temperature; high values mean tight binding; conditions: protein: recombinant;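 further: relative affinity from the bound to unbound sequence frequency ratio in Spec-seq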
Hi there, I'd appreciate the recorded binding signal for every entry that follows.
Answers are plain numbers, in lnKA.

>>> valueobserved("GATG (dsDNA) DNA 1: GCTATCTAGTGCTCAGTACGCACTGGATGAGGAAACTTCTGGCAGGACCAGGTCATGAGATCGGAAGAGCACACGTCTGAACTCCAGTCA DNA 2: TGACTGGAGTTCAGACGTGTGCTCTTCCGATCTCATGACCTGGTCCTGCCAGAAGTTTCCTCATCCAGTGCGTACTGAGCACTAGATAGC RNA: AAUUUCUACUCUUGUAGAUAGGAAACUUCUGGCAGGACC")
-8.25
>>> valueobserved("ATCC (dsDNA) DNA 1: GCTATCTAGTGCTCAGTACGCACTGATCCAGGAAACTTCTGGCAGGACCAGGTCATGAGATCGGAAGAGCACACGTCTGAACTCCAGTCA DNA 2: TGACTGGAGTTCAGACGTGTGCTCTTCCGATCTCATGACCTGGTCCTGCCAGAAGTTTCCTGGATCAGTGCGTACTGAGCACTAGATAGC RNA: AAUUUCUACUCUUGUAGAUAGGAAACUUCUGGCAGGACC")
-4.3

Next binder, please.
Input line: Any idea what its binding signal is? The binder is GCTA (dsDNA) DNA 1: GCTATCTAGTGCTCAGTACGCACTGGCTAAGGAAACTTCTGGCAGGACCAGGTCATGAGATCGGAAGAGCACACGTCTGAACTCCAGTCA DNA 2: TGACTGGAGTTCAGACGTGTGCTCTTCCGATCTCATGACCTGGTCCTGCCAGAAGTTTCCTTAGCCAGTGCGTACTGAGCACTAGATAGC RNA: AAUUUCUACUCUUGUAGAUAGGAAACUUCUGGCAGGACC
Output line: -7.23
